Method summary: Oral bioavailability in C57/BL6 mouse at 30 mg/kg administered as homogeneous suspension in 0.5% methocel/0.25% tween20 in 50 mM acetate buffer (pH 5.5) and measured after 2 hrs by HPLC-MS/MS analysis
Format: ADME, organism-based
Details: in vivo
Attribute measured: bioavailability (%)

>>> result_number("Cc1cc(C#Cc2ccccc2NS(=O)(=O)c2c(C)ccc3cccnc23)cnc1C(=O)O")
45

---

Method summary: in vivo
Details: C57BL/6, mouse, iv, 0.2 mg/kg
Attribute measured: clearance at 2 h (mL/min/kg)

>>> result_number("CCOc1ccc(S(=O)(=O)Nc2ccccc2C#Cc2ccc(C(=O)O)nc2)c2ncccc12")
10
>>> result_number("Cc1cc(C#Cc2ccccc2NS(=O)(=O)c2c(C)ccc3cccnc23)cnc1C(=O)O")
31.7
>>> result_number("COc1ccc(S(=O)(=O)Nc2ccccc2C#Cc2ccc(C(=O)O)nc2)c2ncccc12")
6.67
